Each record here notes measured activation at 1.54 µM.
targetOfAssay: UniProt:P30613
Sequence (P30613 whole entry): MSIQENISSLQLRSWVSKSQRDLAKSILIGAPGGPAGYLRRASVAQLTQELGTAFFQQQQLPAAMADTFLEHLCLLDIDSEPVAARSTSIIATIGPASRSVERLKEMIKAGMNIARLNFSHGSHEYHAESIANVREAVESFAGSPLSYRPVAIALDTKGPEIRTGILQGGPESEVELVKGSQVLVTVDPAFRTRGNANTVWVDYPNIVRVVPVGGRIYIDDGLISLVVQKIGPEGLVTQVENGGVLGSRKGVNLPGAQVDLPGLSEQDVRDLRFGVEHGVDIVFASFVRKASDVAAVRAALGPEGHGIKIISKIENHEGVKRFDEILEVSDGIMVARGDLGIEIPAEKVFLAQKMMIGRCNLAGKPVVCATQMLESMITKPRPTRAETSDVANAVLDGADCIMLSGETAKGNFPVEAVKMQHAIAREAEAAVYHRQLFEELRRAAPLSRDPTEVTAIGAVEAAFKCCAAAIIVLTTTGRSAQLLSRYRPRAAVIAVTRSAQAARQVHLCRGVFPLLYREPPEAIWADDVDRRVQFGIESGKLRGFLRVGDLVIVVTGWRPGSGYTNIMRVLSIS
assayExplanation: Luminescence Assay Protocol (Kinase Glo Plus), PKR(Wt/without FBP)
Assay type: biochemical
assayConditions: without FBP, compound 1.54 μM, read-out: I - AC50 LUM KGP woFBP % Fold @ 1.54 μM mean

Data point: O=C([C@H](CO)c1ccccc1)N1CC2=C(C1)CN(S(=O)(=O)c1ccc3c(c1)NCCO3)C2 ; activation at 1.54 µM = 75 to 250%

Data point: O=C([C@@H]1CCOC1)N1CC2=C(C1)CN(S(=O)(=O)c1ccc3occc3c1)C2 ; activation at 1.54 µM = 250 to 500%

Data point: Cc1nc2ccc(S(=O)(=O)N3CC4=C(CN(C(=O)C(C)(C)CO)C4)C3)cc2o1 ; activation at 1.54 µM = 75 to 250%

Data point: O=C([C@H](CO)c1ccccc1)N1CC2=C(C1)CN(S(=O)(=O)c1ccc(C(F)(F)F)nc1)C2 ; activation at 1.54 µM = 75 to 250%

The origin of these recorded values is patent US11649242B2.
